- Assay procedure: Stability in human plasma assessed as parent compound remaining at 5 uM measured after 4 hrs by HPLC-MS/MS analysis
- Format: ADME, cell-free
- Measurement parameters: read-out: Stability
Measured endpoint: remaining at 4 h, 5 µM

Query: Request the reported remaining at 4 h, 5 µM associated with `CCn1nc(C)cc1C(=O)Nc1nc2cc(C(N)=O)cc(OC)c2n1C/C=C/Cn1c(NC(=O)c2cc(C)nn2CC)nc2cc(C(N)=O)cc(OCCCNC(=O)OC(C)(C)C)c21`
Response: > 99%

---

- Measurement target: Voltage-gated inwardly rectifying potassium channel KCNH2 (Homo sapiens, UniProt Q12809)
- Sequence (Q12809 whole entry): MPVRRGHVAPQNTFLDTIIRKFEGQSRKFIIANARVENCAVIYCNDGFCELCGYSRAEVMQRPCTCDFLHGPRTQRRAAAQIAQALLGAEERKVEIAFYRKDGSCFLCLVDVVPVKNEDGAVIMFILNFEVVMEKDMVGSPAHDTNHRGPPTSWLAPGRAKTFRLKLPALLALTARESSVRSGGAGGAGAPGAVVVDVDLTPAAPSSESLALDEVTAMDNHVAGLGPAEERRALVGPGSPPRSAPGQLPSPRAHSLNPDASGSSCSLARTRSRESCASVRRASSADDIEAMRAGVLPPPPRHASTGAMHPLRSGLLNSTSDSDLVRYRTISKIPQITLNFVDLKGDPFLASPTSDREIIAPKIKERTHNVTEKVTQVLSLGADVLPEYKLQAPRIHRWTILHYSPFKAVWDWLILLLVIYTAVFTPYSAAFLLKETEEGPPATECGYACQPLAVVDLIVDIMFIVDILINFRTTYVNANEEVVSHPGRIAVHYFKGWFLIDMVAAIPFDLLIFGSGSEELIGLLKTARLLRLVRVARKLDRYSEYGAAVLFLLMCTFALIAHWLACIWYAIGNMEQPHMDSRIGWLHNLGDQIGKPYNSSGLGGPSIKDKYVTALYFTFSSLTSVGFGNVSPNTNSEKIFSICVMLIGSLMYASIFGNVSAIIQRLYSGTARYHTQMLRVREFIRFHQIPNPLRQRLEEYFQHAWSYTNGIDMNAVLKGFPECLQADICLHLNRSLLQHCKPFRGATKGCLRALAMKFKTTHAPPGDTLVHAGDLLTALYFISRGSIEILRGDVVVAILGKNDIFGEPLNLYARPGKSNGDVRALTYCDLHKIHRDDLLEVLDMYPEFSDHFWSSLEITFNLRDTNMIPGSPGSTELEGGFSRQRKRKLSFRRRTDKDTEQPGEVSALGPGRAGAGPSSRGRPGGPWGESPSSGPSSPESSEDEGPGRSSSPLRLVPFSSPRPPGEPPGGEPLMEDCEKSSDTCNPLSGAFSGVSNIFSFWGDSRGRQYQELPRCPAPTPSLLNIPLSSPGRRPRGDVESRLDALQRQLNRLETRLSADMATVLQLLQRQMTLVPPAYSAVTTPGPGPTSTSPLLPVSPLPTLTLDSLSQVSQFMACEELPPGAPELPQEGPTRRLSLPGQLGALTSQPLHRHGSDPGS
- Assay procedure: Inhibition of hERG by patch clamp assay
- Format: toxicity
Measured endpoint: IC50

Query: Sample `CCn1nc(C)cc1C(=O)Nc1nc2cc(C(N)=O)cc(OC)c2n1C/C=C/Cn1c(NC(=O)c2cc(C)nn2CC)nc2cc(C(N)=O)cc(OCCCNC(=O)OC(C)(C)C)c21` — what was its IC50?
Response: > 50 µM

---

- Assay procedure: Stability in human liver microsome assessed as parent compound remaining at 1 uM measured after 30 mins in the presence of NADPH by HPLC-MS/MS analysis
- Type: ADME
- Measurement parameters: liver microsomes, read-out: Stability
Measured endpoint: remaining at 0.5 h, 1 µM (%)
Answer format: numeric, % implied, no suffix.

Query: I'd like to know its remaining at 0.5 h, 1 µM. The compound in question is `CCn1nc(C)cc1C(=O)Nc1nc2cc(C(N)=O)cc(OC)c2n1C/C=C/Cn1c(NC(=O)c2cc(C)nn2CC)nc2cc(C(N)=O)cc(OCCCNC(=O)OC(C)(C)C)c21`
Response: 11.2

---

- Measurement target: Stimulator of interferon genes protein (Homo sapiens)
- Sequence (Q86WV6 whole entry): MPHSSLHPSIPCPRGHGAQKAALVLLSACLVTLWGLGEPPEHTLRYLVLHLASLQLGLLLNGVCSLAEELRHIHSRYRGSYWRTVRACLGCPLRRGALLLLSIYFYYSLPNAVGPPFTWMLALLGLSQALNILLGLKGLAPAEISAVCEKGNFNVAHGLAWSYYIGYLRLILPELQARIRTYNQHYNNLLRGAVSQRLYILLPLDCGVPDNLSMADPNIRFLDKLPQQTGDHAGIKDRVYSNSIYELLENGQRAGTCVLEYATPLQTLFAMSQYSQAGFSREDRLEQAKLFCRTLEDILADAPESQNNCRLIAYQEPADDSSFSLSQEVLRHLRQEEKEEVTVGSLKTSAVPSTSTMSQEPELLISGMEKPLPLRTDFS
- Assay procedure: Activation of STING mediated immune response in human THP-1 cells assessed as induction of IFNbeta secretion measured after 24 hrs by ELISA
Measured endpoint: pEC50
In plain terms, pEC50 is the concentration in mol/L turned into minus its base-10 logarithm.

Query: Suppose we examine the molecule `CCn1nc(C)cc1C(=O)Nc1nc2cc(C(N)=O)cc(OC)c2n1C/C=C/Cn1c(NC(=O)c2cc(C)nn2CC)nc2cc(C(N)=O)cc(OCCCNC(=O)OC(C)(C)C)c21` ; what pEC50 value has been reported?
Response: 8.70

---

- Measurement target: Stimulator of interferon genes protein (Homo sapiens)
- Measurement parameters: THP1-Dual, filed as activator, dose 50.0 µM, time 24.0 hrs
Provide the recorded RLU for the entries that follow.
Please give only the number in your answer, with no unit.

Query: Returns the measured RLU for the input molecule. Input: `C=CCn1nc(C(=O)Nc2nc3cc(C(N)=O)ccc3n2CCCCNC(=O)OC(C)(C)C)cc1C`
Response: 0.9

Query: I am curious: what RLU value has been reported for `CCn1nc(C)cc1C(=O)Nc1nc2cc(C(N)=O)cc(OC)c2n1C/C=C/CNC(=O)OC(C)(C)C` ?
Response: 13.7

Query: RLU for `CCn1nc(C)cc1C(=O)Nc1nc2cc(C(N)=O)ccc2n1CCCCNC(=O)C(C)(C)C` ?
Response: 4.8

Query: Using the record for `C=CCn1nc(C(=O)Nc2nc3cc(C(N)=O)ccc3n2CCCCn2c(NC(=O)c3cc(C)n(CC=C)n3)nc3cc(C(N)=O)ccc32)cc1C` , report its RLU.
Response: 0.8

Query: Reported RLU for `CCn1nc(C)cc1C(=O)/N=c1\[nH]c2cc(C(N)=O)cc(OC)c2n1C/C=C/Cn1/c(=N/C(=O)c2cc(C)nn2CC)[nH]c2cc(C(N)=O)cc(OCCCN3CCOCC3)c21` : what is it?
Response: 68.6

Query: State the recorded RLU for this entry: `CCn1nc(C)cc1C(=O)Nc1nc2cc(C(N)=O)cc(OCCCNC(=O)OC(C)(C)C)c2n1C`
Response: 127

Query: For `NC(=O)c1ccc2c(c1)nc(NC(=O)c1n[nH]c3ccccc13)n2C[C@@H](O)c1ccccc1` , what is its reported RLU?
Response: 0.9

Query: # RLU lookup, item `NC(=O)c1ccc2c(c1)nc(NC(=O)c1ccoc1)n2C[C@@H](O)c1ccccc1`
Response: 0.5

Query: Give the measured RLU of `CCn1nc(C)cc1C(=O)NCCCn1c(NC(=O)c2cc(C)nn2CC)nc2cc(C(N)=O)ccc21` .
Response: 13.7

Query: // query RLU value for entry `CCn1nc(C)cc1C(=O)Nc1nc2cc(C(N)=O)ccc2n1CCCCNC(=O)OC(C)(C)C`
Response: 21

Query: May I ask what RLU has been recorded for `CCn1nc(C)cc1C(=O)NCCCOc1cc(C(N)=O)cc2nc(NC(=O)c3cc(C)nn3CC)n(C/C=C/Cn3c(NC(=O)c4cc(C)nn4CC)nc4cc(C(N)=O)cc(OC)c43)c12` ?
Response: 100

Query: Fill blank: measured RLU of the molecule `CC(C)(C)OC(=O)NCCCCn1c(NC(=O)c2ccoc2)nc2cc(C(N)=O)ccc21` is ____.
Response: 0.9

Query: Given `NC(=O)c1ccc2c(c1)nc(NC(=O)c1cc3ccccc3o1)n2C[C@@H](O)c1ccccc1` , state its recorded RLU.
Response: 0.8

Query: Consider the molecule shown here: NC(=O)c1ccc2c(c1)nc(NC(=O)c1nn(C3CCCCO3)c3ccccc13)n2C[C@@H](O)c1ccccc1 (stereo partly specified) What is its recorded RLU?
Response: 0.4

Query: Using the record for `CCn1nc(C)cc1C(=O)/N=c1\[nH]c2cc(C(N)=O)ccc2n1C[C@@H](O)c1ccccc1` , report its RLU.
Response: 2

Query: For the molecule `CCn1nc(C)cc1C(=O)Nc1nc2cc(C(=O)OC)ccc2n1CCCCn1c(NC(=O)c2cc(C)nn2CC)nc2cc(C(=O)OC)ccc21` , what RLU is on record?
Response: 0.8
